The origin of these recorded values is patent US11247990B1.

Target: GST-tagged recombinant human TYRO3 kinase domain (Homo sapiens (Human), UniProt Q06418)
Sequence (Q06418 518-790): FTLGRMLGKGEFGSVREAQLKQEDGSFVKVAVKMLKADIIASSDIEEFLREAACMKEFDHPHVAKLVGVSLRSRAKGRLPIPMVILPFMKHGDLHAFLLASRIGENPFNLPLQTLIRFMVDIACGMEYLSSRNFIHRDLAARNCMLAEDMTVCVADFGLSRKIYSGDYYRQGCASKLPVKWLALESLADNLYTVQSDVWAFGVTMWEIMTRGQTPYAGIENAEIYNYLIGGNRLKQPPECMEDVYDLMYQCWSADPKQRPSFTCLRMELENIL
Experiment: TYRO3 Enzyme Assay (LanthaScreen Eu Kinase Binding, TR-FRET)
Conditions: averaged IC50
Protocol: Compounds of Formula I were screened for their ability to inhibit TYRO3 kinase using Invitrogen's LanthaScreen™ Eu Kinase Binding technology. […] After a 60-minute incubation at 22° C., the reaction was measured using a PerkinElmer EnVision multimode plate reader via TR-FRET dual wavelength detection, and the percent of control (POC) calculated using a ratiometric emission factor. […] The POC values were fit to a 4 parameter logistic curve and the IC50 value is point where the curve crosses 50 POC.
pIC50: −log10 of the molar value.
Below: a set of entries, each annotated with reported pIC50.

Record excerpt, results attached:
In [3]: df
Out[3]:
                                   molecule                             tested_target        result
0  CNc1cc2c(cn1)c(-c1cnn(CC(C)(C)O)c1)nn2[C@H]1CC[C@@H](Oc2ccccc2F)CC1 [Example 396]  GST-tagged recombinant human TYRO3 kinase domain (Homo sapiens (Human), UniProt Q06418)  7.00 to 8.00
1  CNc1cc2c(cn1)c(-c1cnn(C(C)(C)CO)c1)nn2[C@H]1CC[C@@H](Oc2ccccc2F)CC1 [Example 395]  GST-tagged recombinant human TYRO3 kinase domain (Homo sapiens (Human), UniProt Q06418)  7.00 to 8.00
2  CCNc1cc2c(cn1)c(-c1cnn(C)c1)nn2[C@H]1CC[C@@H](Oc2nccc(N(C)C)c2F)CC1 [Example 349]  GST-tagged recombinant human TYRO3 kinase domain (Homo sapiens (Human), UniProt Q06418)  6.00 to 7.00

INPUT: For CCNc1cc2c(cn1)c(N1CCC(N3CCN(C)CC3)CC1)nn2[C@H]1CC[C@@H](Oc2nccc(C(F)(F)F)c2F)CC1 [Example 489] , what is its reported pIC50?
OUTPUT: 7.00 to 8.00

INPUT: Look up pIC50 for this molecule: CNc1cc2c(cn1)c(-c1cnn(C(C)(C)C#N)c1)nn2[C@H]1CC[C@@H](Oc2cccc(F)c2F)CC1 [Example 369]
OUTPUT: 7.00 to 8.00

INPUT: Form field: reported pIC50 of CCNc1cc2c(cn1)c(-c1cnn(C(CO)CO)c1)nn2[C@H]1CC[C@@H](Oc2ccc(F)cc2F)CC1 [Example 414]
OUTPUT: 7.00 to 8.00

INPUT: Fill in: pIC50 of CCNc1cc2c(cn1)c(-c1ccc3c(c1)CN(C)C3=O)nn2[C@H]1CC[C@@H](Oc2cn(C)nc2C(F)(F)F)CC1 [Example 288] is ___
OUTPUT: > 8.00

###

target: GST-tagged recombinant human TYRO3 kinase domain (Homo sapiens (Human)); experiment: TYRO3 Enzyme Assay (LanthaScreen Eu Kinase Binding, TR-FRET); conditions: averaged IC50
pIC50: −log10 of the molar value.
VALUE KIND: pIC50

>>> print(df.to_string())
                           substance_smiles  value_kind        result
0  CCNc1cc2c(cn1)c(-c1ccc3c(c1)CNS3(=O)=O)nn2[C@H]1CC[C@@H](Oc2cn(C)nc2C(F)(F)F)CC1       pIC50        > 8.00
1  CCNc1cc2c(cn1)c(-c1cnn(C)c1)nn2[C@H]1CC[C@@H](Oc2cccc(C#N)c2)CC1       pIC50  7.00 to 8.00
2  CCNc1cc2c(cn1)c(-c1cnn(C[C@@H](O)CO)c1)nn2[C@H]1CC[C@@H](Oc2cccnc2C(F)(F)F)CC1       pIC50        > 8.00

INPUT: What measured pIC50 goes with Cn1cc(-c2nn([C@H]3CC[C@@H](Oc4cn(C)nc4C(F)(F)F)CC3)c3cc(Nc4ccccc4)ncc23)cn1 ?
OUTPUT: > 8.00

###

biological target: His-tagged recombinant human MER cytoplasmic domain (Homo sapiens (Human)); assay: MER Enzyme Assay (LanthaScreen Eu Kinase Binding, TR-FRET); conditions: averaged IC50
Sequence (Q12866 527-999): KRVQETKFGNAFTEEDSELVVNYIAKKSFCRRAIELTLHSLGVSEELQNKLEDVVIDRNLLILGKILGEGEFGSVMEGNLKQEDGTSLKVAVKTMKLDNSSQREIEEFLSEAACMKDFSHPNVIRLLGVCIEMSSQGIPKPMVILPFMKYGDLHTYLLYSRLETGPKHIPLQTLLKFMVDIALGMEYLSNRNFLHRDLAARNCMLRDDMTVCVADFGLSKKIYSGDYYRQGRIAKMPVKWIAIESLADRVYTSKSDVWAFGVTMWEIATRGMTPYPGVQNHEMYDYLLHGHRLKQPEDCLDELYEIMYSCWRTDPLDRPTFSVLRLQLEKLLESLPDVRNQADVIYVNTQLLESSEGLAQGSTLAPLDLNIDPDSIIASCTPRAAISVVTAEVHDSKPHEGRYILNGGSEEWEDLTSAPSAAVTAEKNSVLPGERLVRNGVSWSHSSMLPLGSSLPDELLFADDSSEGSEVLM
VALUE KIND: IC50

>>> df
                           substance_smiles                             tested_target   result
0  CCNc1cc2c(cn1)c(C1CCN(CCOC)CC1)nn2[C@H]1CC[C@@H](Oc2nccc(C(F)(F)F)c2F)CC1  His-tagged recombinant human MER cytoplasmic domain (Homo sapiens (Human))  < 10 nM
1  CNc1cc2c(cn1)c(-c1cnn(C)c1)nn2[C@H]1CC[C@@H](Oc2ccc(F)cc2)CC1  His-tagged recombinant human MER cytoplasmic domain (Homo sapiens (Human))  < 10 nM
2  CCNc1cc2c(cn1)c(-c1ccc(CN3CC[C@@H](CO)C3)cc1)nn2[C@H]1CC[C@@H](Oc2ccc(=O)n(C)n2)CC1  His-tagged recombinant human MER cytoplasmic domain (Homo sapiens (Human))  < 10 nM

INPUT: Quick check: IC50 of CCNc1cc2c(cn1)c(-c1cnn(C)c1)nn2[C@H]1CC[C@@H](Oc2cccc(C(F)(F)F)c2F)CC1 ?
OUTPUT: < 10 nM

INPUT: Query (compound): CNc1cc2c(cn1)c(-c1cnn(C)c1)nn2[C@H]1CC[C@@H](Oc2ccc(=O)[nH]c2)CC1 ; field requested: IC50
OUTPUT: < 10 nM

INPUT: Param item = CCNc1cc2c(cn1)c(-c1cnn(C[C@@H](O)CO)c1)nn2[C@H]1CC[C@@H](Oc2nccc(C#N)c2F)CC1 ; retrieve measured IC50.
OUTPUT: < 10 nM

INPUT: Bench note: what IC50 did CCNc1cc2c(cn1)c(-c1cnn(C[C@@H](O)C(C)(C)O)c1)nn2[C@H]1CC[C@@H](Oc2cccc(Cl)c2)CC1 show?
OUTPUT: < 10 nM

###

biological target: His-tagged recombinant human AXL cytoplasmic domain (Homo sapiens (Human), UniProt P30530); test: AXL Enzyme Assay (LanthaScreen Eu Kinase Binding, TR-FRET); conditions: averaged IC50
Sequence (P30530 473-894): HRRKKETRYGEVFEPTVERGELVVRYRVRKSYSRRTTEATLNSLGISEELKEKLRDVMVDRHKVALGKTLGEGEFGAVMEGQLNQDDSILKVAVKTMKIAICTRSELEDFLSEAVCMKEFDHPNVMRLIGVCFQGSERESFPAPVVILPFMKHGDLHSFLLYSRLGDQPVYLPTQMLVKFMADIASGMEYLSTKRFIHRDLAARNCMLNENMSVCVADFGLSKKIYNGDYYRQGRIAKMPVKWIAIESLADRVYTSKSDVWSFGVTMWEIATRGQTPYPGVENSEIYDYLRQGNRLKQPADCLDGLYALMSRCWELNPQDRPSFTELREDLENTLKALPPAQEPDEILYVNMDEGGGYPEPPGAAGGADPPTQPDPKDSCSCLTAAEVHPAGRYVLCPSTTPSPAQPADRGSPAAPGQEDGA
Each entry below lists one item and its recorded IC50 value.

                           substance_smiles  value_kind            result
0  Cn1cc(-c2nn([C@H]3CC[C@@H](Oc4ccc(=O)n(C)n4)CC3)c3cc(N)ncc23)cn1        IC50  1000 to 10000 nM
1  CNc1cc2c(cn1)c(-c1ccc(CN3CCN(CCO)CC3)cc1)nn2[C@H]1CC[C@@H](Oc2ccc(=O)n(C)n2)CC1        IC50           < 10 nM
2  CCNc1cc2c(cn1)c(N1CCC(N(C)C)CC1)nn2[C@H]1CC[C@@H](Oc2nccc(C(F)(F)F)c2F)CC1        IC50           < 10 nM

INPUT: What value of IC50 has been recorded for this entry: CNc1cc2c(cn1)c(-c1cnn(C)c1)nn2[C@H]1CC[C@@H](Oc2ccc(F)cc2)CC1
OUTPUT: < 10 nM

###

biological target: GST-tagged recombinant human TYRO3 kinase domain (Homo sapiens (Human)); experiment: TYRO3 Enzyme Assay (LanthaScreen Eu Kinase Binding, TR-FRET); conditions: averaged IC50
VALUE KIND: IC50

// known answers, use as guide
>>> print(df.to_string())
                           substance_smiles  value_kind      result
0  CCNc1cc2c(cn1)c(-c1cnn(C)c1)nn2[C@H]1CC[C@@H](Oc2ccc(=O)n(CCOC)n2)CC1        IC50  1 to 10 µM
1  CCNc1cc2c(cn1)c(-c1cnn(C)c1)nn2[C@H]1CC[C@@H](Oc2cccnc2F)CC1        IC50   < 0.01 µM

INPUT: Which IC50 value is on record for CNc1cc2c(cn1)c(-c1cnn(C(CO)CO)c1)nn2[C@H]1CC[C@@H](Oc2ccc(F)cc2)CC1 ?
OUTPUT: 0.01 to 0.1 µM

INPUT: Could you tell me which IC50 is on file for CCNc1cc2c(cn1)c(-c1cnn(C(C)(C)CO)c1)nn2[C@H]1CC[C@@H](Oc2nccc(C(F)(F)F)c2F)CC1 ?
OUTPUT: 0.01 to 0.1 µM

###

Measured pIC50 accompanies every entry in the list below.
Molecular target: GST-tagged recombinant human TYRO3 kinase domain (Homo sapiens (Human))
Assay: TYRO3 Enzyme Assay (LanthaScreen Eu Kinase Binding, TR-FRET)
Conditions: averaged IC50
Procedure: Compounds of Formula I were screened for their ability to inhibit TYRO3 kinase using Invitrogen's LanthaScreen™ Eu Kinase Binding technology. […] After a 60-minute incubation at 22° C., the reaction was measured using a PerkinElmer EnVision multimode plate reader via TR-FRET dual wavelength detection, and the percent of control (POC) calculated using a ratiometric emission factor. […] The POC values were fit to a 4 parameter logistic curve and the IC50 value is point where the curve crosses 50 POC.
pIC50: −log10 of the molar value.

Here are 10 molecules together with their reported answers.
>>> df
                                   molecule  value_kind        result
0  CCNc1cc2c(cn1)c(-c1cnn(C[C@@H](O)C(C)(C)O)c1)nn2[C@H]1CC[C@@H](Oc2nccc(C(F)(F)F)c2F)CC1 [Example 237]       pIC50  7.00 to 8.00
1  CNc1cc2c(cn1)c(-c1ccc3c(c1)CNC3=O)nn2[C@H]1CC[C@@H](Oc2cccnc2C(F)(F)F)CC1 [Example 218]       pIC50        > 8.00
2  CNc1cc2c(cn1)c(-c1cnc(N3CCOCC3)nc1)nn2[C@H]1CC[C@@H](Oc2ccc(=O)n(C)n2)CC1 [Example 51]       pIC50  5.00 to 6.00
3  CCNc1cc2c(cn1)c(N1CC[C@@H](NC)C1)nn2[C@H]1CC[C@@H](Oc2cccc(C(F)(F)F)c2F)CC1 [Example 492]       pIC50  7.00 to 8.00
4  CCNc1cc2c(cn1)c(-c1ccc3c(c1)CNC3=O)nn2[C@H]1CC[C@@H](Oc2cn(C)nc2C(F)(F)F)CC1 [Example 287]       pIC50        > 8.00
5  CCNc1cc2c(cn1)c(-c1cnn(C)c1)nn2[C@H]1CC[C@@H](Oc2cccc(C(F)(F)F)c2F)CC1 [Example 498]       pIC50  7.00 to 8.00
6  CNc1cc2c(cn1)c(-c1cnn(C)c1)nn2[C@H]1CC[C@H](Oc2cccnn2)CC1 [Example 119]       pIC50  5.00 to 6.00
7  CNc1cc2c(cn1)c(-c1cnn(C[C@H](N)CO)c1)nn2[C@H]1CC[C@@H](Oc2ccccc2F)CC1 [Example 433]       pIC50        > 8.00
8  CCNc1cc2c(cn1)c(-c1cnn(C)c1)nn2[C@H]1CC[C@@H](Oc2nccnc2CC)CC1 [Example 190]       pIC50  7.00 to 8.00
9  CNc1cc2c(cn1)c(-c1cnn(C)c1)nn2[C@@H]1CC[C@H](Oc2ccccc2)[C@@H](O)C1 [Example 471A]       pIC50  7.00 to 8.00

INPUT: Consider the molecule shown here: CNc1cc2c(cn1)c(-c1cnn(C)c1)nn2[C@H]1CC[C@@H](Oc2cccnc2C(=O)N(C)C)CC1 [Example 277] What is its recorded pIC50?
OUTPUT: 5.00 to 6.00

INPUT: Fill blank: measured pIC50 of the molecule CCNc1cc2c(cn1)c(-c1cnn(C)c1)nn2[C@H]1CC[C@@H](Oc2c[nH]nc2C(F)(F)F)CC1 [Example 311] is ____.
OUTPUT: > 8.00

INPUT: Query: pIC50; subject: CNc1cc2c(cn1)c(-c1cnn(C)c1)nn2C1CCC(Oc2cc(N(C)C)cnn2)CC1 (centres unmarked) [Example 154]
OUTPUT: 5.00 to 6.00

INPUT: Entry CCNc1cc2c(cn1)c(-c1cnn(C[C@@H](O)C(C)(C)O)c1)nn2[C@H]1CC[C@@H](Oc2ccc(F)cc2F)CC1 [Example 447] : reported pIC50 = ?
OUTPUT: 7.00 to 8.00
